Test Summary: Absorption, distribution, metabolism and excretion after a single 1-mg oral dose of [14C]Compound (A)
Assay type: in vivo, human
Protocol Conditions: human, plasma, read-out: maximum concentration (Cmax) of parent in plasma
Attribute Measured: Cmax (ng/mL)

                                   molecule  attribute_measured  measured_result
0  O=C(O)c1cc(F)c2nc(N3C4CC[C@H]3C[C@@H](OCc3c(-c5ccccc5OC(F)(F)F)noc3C3CC3)C4)sc2c1 [Compound (A)]                Cmax             33.5

* * *

Test Summary: Absorption, distribution, metabolism and excretion after a single 1-mg oral dose of [14C]Compound (A)
Type: in vivo, human
Protocol Conditions: human, plasma, read-out: half time (t1/2) in plasma (converted)
Attribute Measured: half-life (h)

>>> df
                               smiles_input  attribute_measured  result_units  measured_result
0  O=C(O)c1cc(F)c2nc(N3C4CC[C@H]3C[C@@H](OCc3c(-c5ccccc5OC(F)(F)F)noc3C3CC3)C4)sc2c1           half-life             h             13.5
